- tested-target: T1, human BCMA with a His tag (ACROBiosystems, Catalog No.: BCA-H522y) (human)
- T1 construct: Bought His-tagged recombinant protein; also called huBCMA-His; Recombinant human BCMA
- T1 chain: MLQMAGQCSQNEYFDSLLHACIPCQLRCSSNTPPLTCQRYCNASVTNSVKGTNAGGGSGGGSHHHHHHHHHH
- experimental-details: ELISA, plate-coated human BCMA-His
- Procedure: The recombinantly expressed antibodies were used to assess binding activity to BCMA of different species origins by conventional ELISA according to the known art. […] The ability for antibodies of the present disclosure to bind human BCMA was measured with an ELISA assay. […] The absorbance at 450 nm is read on a microplate reader. The half maximal effective concentration (EC50) is calculated using GraphPad Prism 6 software. […]
Each entry below lists one item and its recorded EC50 value.
// units = ng/mL; emit number, no label

Task: Answer with the recorded EC50 for the binder listed here: SCT-Aa08(h/h) (antibody, V domains shown, Full IgG format, chimeric: human IgG1 heavy chain constant region, human kappa light chain constant region) VH: QVQLQQSDAELVKPGASVKISCKVSGYTFIDHTIHWMKQRPEQGLEWIGYIYPRIDSSKCNEKFKDKATLTADKSSNTAYIQLNSLTSEDSAVYFCARWDYEGFDYWGQGTTLTVSS VL: DIVMTQSPATLSVTPGDRVSLSCRASQSISDYLHWYQQKSHESPRLLIKYASQSISGIPSRFSGSGSGSDFTLSINSVEPEDVGVYYCQNGHSFPPTFGSGTKLEIK
Result: 3.74

Task: Answer with the recorded EC50 for the binder listed here: SCT-Aa12(m/m) (antibody, V domains shown, Full IgG format: mouse IgG1 heavy chain constant region, mouse kappa light chain constant region) VH: QVQLQQSDAELVKPGASVKISCKVSGYTFTDYTIHWMKQRPEQGLEWIGYIFPSDGSTKYNEKFKGKATLTADKSSSTAYMQLNSLTSDDSAVYFCARWDYEGFDYWGQGTTLTVSS VL: DIVMTQSPATLSVTPGDRVSLSCRASQSISDYLNWYQQKSHESPRLLIKYASQSISGIPSRFSGSGSGSDFTLSINSVEPEDVGVYYCQNGHSFPPTFGSGTKLEIK
Result: 1.7
